assay target: hPAR2 (Homo sapiens, UniProt P55085)
Sequence (P55085 26-397): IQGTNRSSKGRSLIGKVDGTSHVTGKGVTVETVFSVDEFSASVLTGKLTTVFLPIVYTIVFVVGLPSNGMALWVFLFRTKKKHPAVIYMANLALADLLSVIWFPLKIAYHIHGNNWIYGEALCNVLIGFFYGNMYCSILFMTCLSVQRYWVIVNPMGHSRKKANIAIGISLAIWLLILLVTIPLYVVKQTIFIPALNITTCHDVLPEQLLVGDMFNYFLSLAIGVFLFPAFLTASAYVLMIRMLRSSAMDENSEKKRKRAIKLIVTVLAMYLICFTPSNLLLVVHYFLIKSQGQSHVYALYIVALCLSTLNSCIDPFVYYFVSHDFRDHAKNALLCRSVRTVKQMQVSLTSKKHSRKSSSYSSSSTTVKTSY
procedure text: pERK1/2 HTRF assay, inhibition of SLIGRL-NH2 in U2OS-hPAR2 cells
Format: cell-based
condition description: SLIGRL-NH2, U2OS-hPAR2; mean ± s.e.m.; read-out: pERK1/2 (hPAR2) pIC50 (converted)
experimental endpoint: IC50 (nM)

- C[C@@H](C1CCCCC1)n1c(-c2cc3c(cc2Br)OCO3)nc2cc(C(=O)Nc3ccc(C#N)cc3)ccc21 [AZ3451]: 363
- C[C@@H](C1CCCCC1)n1c(-c2cc3c(cc2Br)OCO3)nc2cc(C(=O)Nc3ccncc3)ccc21 [AZ2623]: 794

1. C[C@@H](C1CCCCC1)n1c(-c2cc3c(cc2Br)OCO3)nc2cc(C(=O)Nc3ccccc3)ccc21 [AZ8935]
2. C[C@@H](C1CCOCC1)n1c(-c2cc3c(cc2Br)OCO3)nc2cc(C(=O)Nc3ccc(C#N)cc3)ccc21 [AZ7126]
Ask: From the recorded data, which exceeds the other in IC50: 1 or 2 ? Write down the label attached to your selection.
Reply: 1
